Values were extracted from patent US20190299005A1.

Recorded Burst duration, upper 95% CI values for a group of compounds are listed next.
tested on: individual single vagal fibers (mesenteric nerve bundle of jejunal segment); experiment: Ex vivo vagal nerve fiber recording, test substance in lumen of jejunal segment, post hoc single unit burst analysis; design: species or system BALB/c mice; details: drug in lumen

>  <COMPOUND>
CC(NC(C)(C)C)C(=O)c1cccc(Cl)c1 (stereo not shown)

>  <Burst duration, upper 95% CI>
543 ms

$$$$
>  <COMPOUND>
CC(C)[C@@H](CC[C@@H](C)[C@H]1CC[C@H]2[C@@H]3[C@H](O)C[C@H]4C[C@@H](NCCCNCCCCN)CC[C@]4(C)[C@H]3CC[C@]12C)OS(=O)(=O)O

>  <Burst duration, upper 95% CI>
1954 ms

$$$$
>  <COMPOUND>
CNCCC(Oc1ccc(C(F)(F)F)cc1)c1ccccc1 (stereo not shown)

>  <Burst duration, upper 95% CI>
771 ms

$$$$
>  <COMPOUND>
CN[C@H]1CC[C@@H](c2ccc(Cl)c(Cl)c2)c2ccccc21

>  <Burst duration, upper 95% CI>
676 ms

$$$$

* * *

system: individual single vagal fibers (mesenteric nerve bundle of jejunal segment); test: Ex vivo vagal nerve fiber recording, test substance in lumen of jejunal segment, post hoc single unit burst analysis; design: species or system BALB/c mice; details: drug in lumen
MEASURED_METRIC: Average inter-pulse duration, lower 95% CI (ms)

>  <COMPOUND>
CC(NC(C)(C)C)C(=O)c1cccc(Cl)c1 (stereo not shown)

>  <MEASURE_UNIT>
ms

>  <RESULT_NUMBER>
896

$$$$
>  <COMPOUND>
CN[C@H]1CC[C@@H](c2ccc(Cl)c(Cl)c2)c2ccccc21

>  <MEASURE_UNIT>
ms

>  <RESULT_NUMBER>
386

$$$$
>  <COMPOUND>
CC(C)[C@@H](CC[C@@H](C)[C@H]1CC[C@H]2[C@@H]3[C@H](O)C[C@H]4C[C@@H](NCCCNCCCCN)CC[C@]4(C)[C@H]3CC[C@]12C)OS(=O)(=O)O

>  <MEASURE_UNIT>
ms

>  <RESULT_NUMBER>
334

$$$$
>  <COMPOUND>
CNCCC(Oc1ccc(C(F)(F)F)cc1)c1ccccc1 (stereo not shown)

>  <MEASURE_UNIT>
ms

>  <RESULT_NUMBER>
612

$$$$

* * *

Recorded Average inter-pulse duration, upper 95% CI values for a group of molecules are listed next.
test system: individual single vagal fibers (mesenteric nerve bundle of jejunal segment); test: Ex vivo vagal nerve fiber recording, test substance in lumen of jejunal segment, post hoc single unit burst analysis; parameters: species or system BALB/c mice; conditions: drug in lumen
MEASURED_METRIC: Average inter-pulse duration, upper 95% CI (ms)

>  <MOLECULE>
CC(C)[C@@H](CC[C@@H](C)[C@H]1CC[C@H]2[C@@H]3[C@H](O)C[C@H]4C[C@@H](NCCCNCCCCN)CC[C@]4(C)[C@H]3CC[C@]12C)OS(=O)(=O)O

>  <MEASURE_UNIT>
ms

>  <RESULT_NUMBER>
675

$$$$
>  <MOLECULE>
CNCCC(Oc1ccc(C(F)(F)F)cc1)c1ccccc1 (stereo not shown)

>  <MEASURE_UNIT>
ms

>  <RESULT_NUMBER>
983

$$$$
>  <MOLECULE>
CC(NC(C)(C)C)C(=O)c1cccc(Cl)c1 (stereo not shown)

>  <MEASURE_UNIT>
ms

>  <RESULT_NUMBER>
1081

$$$$
>  <MOLECULE>
CN[C@H]1CC[C@@H](c2ccc(Cl)c(Cl)c2)c2ccccc21

>  <MEASURE_UNIT>
ms

>  <RESULT_NUMBER>
614

$$$$
